Biological target: T1, His/Avi-CynoIL18BP (recombinant cynomolgus IL-18BP with His and Avi tags) (cynomolgus monkey)
T1 chain: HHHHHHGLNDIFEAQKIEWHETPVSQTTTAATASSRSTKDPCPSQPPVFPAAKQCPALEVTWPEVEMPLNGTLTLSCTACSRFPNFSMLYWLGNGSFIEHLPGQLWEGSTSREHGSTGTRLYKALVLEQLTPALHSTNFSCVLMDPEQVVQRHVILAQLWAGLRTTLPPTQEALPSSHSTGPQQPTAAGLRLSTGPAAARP
Experiment: cell-based or functional assay
READOUT: % of Max Gamma, human NK cells (%)
Entry rule: numbers only, all in %.

BINDER	UNITS_TEXT	% of Max Gamma, human NK cells
anti-IL18BP antibody BP-09 (antibody, human IgG1, V domains shown) VH: QVQLQQSGAELVRPGASVTLSCKASGYRFTDYAMHWVKQTPVHGLQWIGIIDPETGDTAFNQKFKGKATLTADKSSSTAYMELSSLTSEDSAVYYCTRPRGAMDYWGQGTSVTVSS VL: DIVMTQSHKFMSTSGGDRVSITCKASQDVGTAVAWYQQKPGISPKLLIYWASTRHTGVPDRFTGSGSGTDFTLAISNVQSEDLADYFCQQYSSHPYTFGGGTKLEIK	%	46.6

Which value of % of Max Gamma, human NK cells has been reported for anti-IL18BP antibody BP-13 (antibody, human IgG1, V domains shown) VH: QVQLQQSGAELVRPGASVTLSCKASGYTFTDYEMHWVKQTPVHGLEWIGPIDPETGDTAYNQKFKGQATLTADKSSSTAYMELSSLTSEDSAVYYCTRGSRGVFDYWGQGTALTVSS VL: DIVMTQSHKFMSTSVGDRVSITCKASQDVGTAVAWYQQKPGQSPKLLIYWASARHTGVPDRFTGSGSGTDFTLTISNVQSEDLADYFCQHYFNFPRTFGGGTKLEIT in the records?
54.1

Which value of % of Max Gamma, human NK cells has been reported for anti-IL18BP antibody BP-01 (antibody, human IgG1, V domains shown) VH: QVQLQQSGPEVVRPGVSVKISCKGSGYTFTDFAMYWVKQSHAKSLEWIGVISTDNGDTSYNQKFKGKATMTVDKSSSTAYMELDRLTSEDSAIYYCARSRGPFDYWGQGTALTVSS VL: DIVMTQSHKFKSTSVGDRVNITCKASQDVGTAVAWYQQKPGQSPKLLIYWASTRHIGVPDRFTGSGSGTDFTLTIRNVQSEDLADYFCQRYSSYPWTFGGGTKLEIK in the records?
52.2

Measured values drawn from patent US20250333523A1 for this set.
